Ref: PubChem BioAssay (NCI)

Give TGI for every item shown.
tested on: NCI-H226 lung; experiment: NCI tumour cell line growth inhibition, 48 h

Kindly give each listed record's TGI.
1. Nc1ccccc1CCN1CCN(CCCc2ccccc2)CC1
2. N[C@@H]1CCN(c2c(F)cc3c(=O)c(C(=O)O)cn4c3c2Oc2c-4ccc3c2ccc2ccccc23)C1
3. COc1ccc(C2=C[C@]3(O)CCCN3C[C@@H]2c2ccc(OC)c(OC)c2)cc1
4. CC(C)(C)C1CCC(=O)/C(=C/CC2CC(=O)N(c3ccccc3)C(=O)C2)C1 (configuration not stated)

["> 100 µM", "> 100 µM", "< 0.0001 µM", "32 µM"]

====

system: DU-145 prostate; experiment: NCI tumour cell line growth inhibition, 48 h
Assay readout: TGI

Compound: Cc1cc(Cl)ccc1OCC(=O)Nc1nc2c(Cl)cccc2s1
Obs value: > 100 µM

Compound: COC(=O)[C@@H]1C[C@H]2OC(=O)CC[C@]2(C)O[C@H]1[C@H]1O[C@@](C)(O)CCC[C@H]1C
Obs value: > 50 µM

Compound: CNC(=O)OCc1nc(SSC(C)(C)C)n(C)c1COC(=O)NC
Obs value: 33.3 µM

Dear colleague, please send me the reported TGI for OC(CC1CCCCN1)c1ccc2c(c1)oc1ccccc12 (centres undefined) when you can. > 100 µM

====

Give TGI for every item shown.
test system: LXFL 529 NSCLC; experiment: NCI tumour cell line growth inhibition, 48 h

Compound: O=S(Cc1ccccc1)c1nc2ccccc2nc1-c1cccs1 (stereo not given)
TGI: 12.8 µM
--
Compound: O=C1COc2cc(NC(=S)Nc3ccccc3)ccc2N1
TGI: > 100 µM
--
Compound: Cc1ccc(S(=O)(=O)Nc2cccc3c(=O)[nH]cnc23)cc1
TGI: > 100 µM

Kindly give each listed record's TGI.
1. Cc1ccc(S(=O)(=O)N/N=C2\CCCCC23CCC(=O)NC3)cc1 (stereo not given)
2. CCCCCCCCCCCC(=O)OCCOCCOCCOCCOCCOC(=O)CCCCCCCCCCC
3. CC(=O)C1C(c2ccccc2)C2(C)OC(=O)C(C#N)C12C (stereo not given)
4. O=C(Nc1ccc(Cl)cc1)C1C(=O)C(=O)N(c2ccc(Cl)cc2)C1=O (stereo not given)
5. CC(=O)Oc1c(C)c(-c2ccccc2)c(C)c(-c2ccccc2)c1C(=S)c1ccccc1

1: > 100 µM; 2: > 100 µM; 3: > 100 µM; 4: > 100 µM; 5: > 100 µM

Kindly give each listed record's TGI.
1. O=C(O)CCC1CCc2cccc(O)c2C1=O (stereo not given)
2. N#C/C(=C/c1cccc(Oc2ccccc2)c1)c1ccccc1
3. C=CC[P@]1(=O)O[C@H](c2ccccc2)[C@H](C)N1C
4. CS(=O)(=O)C(C#N)c1nc2ccccc2nc1Cl (stereo not given)
5. CCC(=O)OC[n+]1ccc2c(C)c3[nH]c4ccccc4c3c(C)c2c1
6. CC1(O)C(C)(O)C2(C)O[Te]3(OC12C)OC1(C)C(C)(O)C(C)(O)C1(C)O3 (stereo not given)
7. CN(C)/C=C/C(=CC=[N+](C)C)/C=C/N(C)C

1: > 100 µM; 2: > 100 µM; 3: > 100 µM; 4: > 100 µM; 5: 1.78 µM; 6: 31.4 µM; 7: > 100 µM

====

system: LOX IMVI melanoma; assay: NCI tumour cell line growth inhibition, 48 h; in the data active means GI50 below about 0.43 µM; inactive means the rest
Mark one answer only. Choices: active, inactive

Take a look at these entries with their results.
Molecule: CC/C=C\C[C@H]1CC=C2C(=O)C=C[C@@H]2CC=CCCCC(=O)O[C@@H](CCCCC)CC=C2C(=O)C=C[C@@H]2CC=CCCCC(=O)O[C@@H](CCCCC)CC=C2C(=O)C=C[C@@H]2CC=CCCCC(=O)O[C@@H](CCCCC)CC=C2C(=O)C=C[C@@H]2CC=CCCCC(=O)O1
Label: inactive
//
Molecule: CC(=O)OC1OC([C@H]2c3cccc(O)c3C(=O)c3c(O)cc(C)cc32)C(O)C(O)C1O (stereo partly specified)
Label: active
//
Molecule: O=C(/C=C/c1ccccc1)Nc1ncc(Cc2ccccc2Cl)s1
Label: active
//
Molecule: NC(CSC(c1ccccc1)(c1ccccc1)c1ccccc1)C(=O)NCC(=O)O (stereo unspecified)
Label: inactive
//
Molecule: N/N=C\c1c2ccccc2c(=O)n2c1oc1ccccc12
Label: inactive

Consider the additional molecule presented here.
Which result was noted for this molecule in the test: O=C(Oc1ccc[nH]c1=O)c1cc([N+](=O)[O-])cc([N+](=O)[O-])c1 inactive

====

system: HCC-2998 colon; assay: NCI tumour cell line growth inhibition, 48 h
Assay readout: TGI

Previously resolved entries follow.
Compound: COc1cc(Nc2ncccc2C(=O)Nc2nc3ccc(F)cc3s2)cc(OC)c1OC
Target or test system: HCC-2998 colon
Obs value: 6.96 µM
//
Compound: COc1ccc2c(c1)CN1C(=N2)CSC1c1cccc(Br)c1 (stereo unspecified)
Target or test system: HCC-2998 colon
Obs value: 57.8 µM
//
Compound: COc1ccc(NC(=O)CC/C(CC(=O)c2ccco2)=N/NC(=O)C(N)=O)cc1
Target or test system: HCC-2998 colon
Obs value: > 100 µM
//
Compound: CC(C)(C)C1=C(Br)C(C(C)(C)C)OP1(=O)O (stereo unspecified)
Target or test system: HCC-2998 colon
Obs value: > 100 µM
//
Compound: CC(=O)SCCC(NC(=S)Nc1ccccc1)P(=O)(Oc1ccccc1)Oc1ccccc1 (stereo unspecified)
Target or test system: HCC-2998 colon
Obs value: > 100 µM

Kindly give each listed record's TGI.
1. COc1ccc(Cn2c3c(cc(OC(C)=O)c2=O)Cc2ccccc2-3)cc1
2. COc1c(=O)cc2cc[nH]c3cc[nH]c1c23

["9.96 µM", "> 100 µM"]

Kindly give each listed record's TGI.
1. CN(/N=C/c1ccc(C(=O)O)cc1)C1=NCCCCN1
2. COc1ccc2nc(N/N=C/c3sccc3C)cc(C)c2c1
3. CN(C)CCOc1ccc([N+](=O)[O-])c2cccnc12
4. COc1ccc(/C=C2\N=C(N3CCCCC3)NC2=O)cc1

1: > 100 µM; 2: 41.2 µM; 3: > 100 µM; 4: > 100 µM

====

test system: DU-145 prostate; test: NCI tumour cell line growth inhibition, 48 h; in the data active = GI50 below about 0.43 µM; inactive = the rest
Mark one answer only. Choices: active, inactive

Which result was noted for this compound in the test: Cn1c(Cl)c(/C=C2/C(=O)Nc3ccccc32)c2ccccc21 inactive

Which result was noted for this compound in the test: Cc1cn(-c2cc(NC(=O)c3cccc(C#Cc4cccc5[nH]nc(N)c45)c3)cc(C(F)(F)F)c2)cn1 inactive

Which result was noted for this compound in the test: CCCOC(=O)N[C@H]1CCc2c(Cl)c(OC)c(OC)c(OC)c2-c2ccc(SC)c(=O)cc21 active

Which result was noted for this compound in the test: Nc1n[nH]c2cccc(C#Cc3cccc(NC(=O)c4cccc(C(F)(F)F)c4)c3)c12 inactive

Which result was noted for this compound in the test: N/N=C\c1c2ccccc2c(=O)n2c1oc1ccccc12 inactive

Which result was noted for this compound in the test: COc1ccc2c(c1)OC1=C(C(=O)OC1)C2c1cc(OC)c2c(c1)OCCO2 (configuration not stated) active

Which result was noted for this compound in the test: COc1ccc2c(c1)C(=O)CCc1cc(OC)c(OC)c(OC)c1-2 active

====

system: NCI-H522 lung; test: NCI tumour cell line growth inhibition, 48 h
Assay readout: TGI (µM)
Answers are plain numbers, in µM.

Compound: C=CC[C@]1(/C=N/O)CN(S(=O)(=O)CC[Si](C)(C)C)C[C@H]2CC=CC[C@H]21
Target or test system: NCI-H522 lung
TGI (µM): 38
--
Compound: N/N=C\c1c2ccccc2c(=O)n2c1oc1ccccc12
Target or test system: NCI-H522 lung
TGI (µM): 46
--
Compound: O=C1C=C(Nc2ccccc2C(=O)CC(=O)C(=O)Nc2cccc([N+](=O)[O-])c2)c2ccccc2C1=O
Target or test system: NCI-H522 lung
TGI (µM): 70.6

Kindly give each listed record's TGI.
1. O=C(NC1=C(Cl)C(=O)c2ccccc2C1=O)c1ccccc1
2. CCCCCCCC(CC(=O)NC(CO)C(=O)NC(CO)CC(C)C)OC(=O)CC(CCCCCCC)OC(=O)CC(CCCCCCC)OC1OC(C)C(O)C(OC2OC(C)C(OC(C)=O)C(O)C2O)C1O (centres undefined)

52.3
24.7

====

test system: HOP-92 NSCLC; experiment: NCI tumour cell line growth inhibition, 48 h
Assay readout: log10(TGI) (log10 of the value in µM)
Log scale reminder: TGI in µM, then log10 taken.

Previously resolved entries follow.
Molecule: COc1cc(Nc2ncccc2C(=O)Nc2nc3ccc(F)cc3s2)cc(OC)c1OC
Target or test system: HOP-92 NSCLC
log10(TGI): 0.77
--
Molecule: CCOC(=O)/C=C(\C(=O)OCC)n1cc(C)c(=O)n(Cc2cn(CCCCOC(C)=O)nn2)c1=O
Target or test system: HOP-92 NSCLC
log10(TGI): 0.67
--
Molecule: Cc1c(N2C(=O)C(Cl)C2/C=C/c2ccccc2)c(=O)n(-c2ccccc2)n1C (stereo unspecified)
Target or test system: HOP-92 NSCLC
log10(TGI): 1.70
--
Molecule: COc1ccc2nc(N/N=C/c3sccc3C)cc(C)c2c1
Target or test system: HOP-92 NSCLC
log10(TGI): 1.42
--
Molecule: CNC1(c2cc3ccccc3s2)CCCCC1
Target or test system: HOP-92 NSCLC
log10(TGI): 1.79

Attention now shifts to the item below.
Look up and report measured log10(TGI) (HOP-92 NSCLC) for the following molecule: N[C@H](C(=O)O)[C@@H]1CC(Cl)=NO1 2.73
